Just for reference, patent US11878975B2 is where these values come from.

TARGET DESC: human TLR8 (Homo sapiens, UniProt Q9NR97)
Construct: host or cells: HEK-Blue cells
Sequence (Q9NR97 27-1041): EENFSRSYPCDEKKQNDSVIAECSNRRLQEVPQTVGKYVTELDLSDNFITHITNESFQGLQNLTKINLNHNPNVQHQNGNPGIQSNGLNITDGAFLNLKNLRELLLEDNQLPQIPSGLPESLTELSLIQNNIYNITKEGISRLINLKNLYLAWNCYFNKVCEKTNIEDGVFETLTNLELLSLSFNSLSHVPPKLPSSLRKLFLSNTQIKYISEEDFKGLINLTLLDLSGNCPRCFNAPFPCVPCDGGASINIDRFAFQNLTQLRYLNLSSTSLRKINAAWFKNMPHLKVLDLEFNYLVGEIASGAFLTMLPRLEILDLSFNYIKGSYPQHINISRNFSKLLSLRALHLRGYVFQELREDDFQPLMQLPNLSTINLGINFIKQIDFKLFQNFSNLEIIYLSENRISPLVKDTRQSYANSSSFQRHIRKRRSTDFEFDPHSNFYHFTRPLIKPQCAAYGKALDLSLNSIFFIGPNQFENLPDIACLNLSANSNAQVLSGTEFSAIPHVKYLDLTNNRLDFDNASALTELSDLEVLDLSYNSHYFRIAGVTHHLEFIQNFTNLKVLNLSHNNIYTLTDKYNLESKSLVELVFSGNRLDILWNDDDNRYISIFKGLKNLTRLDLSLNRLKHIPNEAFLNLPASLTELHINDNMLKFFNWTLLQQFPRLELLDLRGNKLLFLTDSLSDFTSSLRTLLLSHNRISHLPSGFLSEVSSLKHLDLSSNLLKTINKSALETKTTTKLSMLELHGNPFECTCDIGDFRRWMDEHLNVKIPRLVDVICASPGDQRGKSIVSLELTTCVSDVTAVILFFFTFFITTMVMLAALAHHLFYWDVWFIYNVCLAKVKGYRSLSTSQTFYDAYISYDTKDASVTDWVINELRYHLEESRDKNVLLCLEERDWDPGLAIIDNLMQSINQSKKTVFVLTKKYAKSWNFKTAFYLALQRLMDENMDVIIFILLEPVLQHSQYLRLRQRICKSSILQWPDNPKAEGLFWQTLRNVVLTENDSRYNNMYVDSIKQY
MEASUREMENT NOTES: TLR8 inhibition reporter assay (HEK-Blue cells, SEAP reporter, R848 stimulation)
Assay type: cell-based
RUN PARAMETERS: HEK-Blue cells overexpressing human TLR8, SEAP reporter, R848 15.9 μM
RESULT TYPE: IC50 (nM)

Cc1c(-c2[nH]c3ccc(C4CNC4)cc3c2C(C)C)cn2ncnc2c1C [Example 545]
3.8
Cc1c(-c2[nH]c3ccc(C4CC(NCCS(C)(=O)=O)C4)cc3c2C(C)C)cn(C)c(=O)c1C (stereo not shown) [Example 495]
1.3

P. CCc1c(-c2ccnc(C)c2)[nH]c2ccc(CNC(=O)OCC3CCNCC3)cc12 [Example 449]
Q. CCN(C)C1CCC(c2ccc3[nH]c(-c4cc(C)c5ncnn5c4)c(C(C)C)c3c2)CC1 (stereo not shown) [Example 63]
Exercise: Looking at recorded values for IC50, does P or Q come in lower? Respond with the label that goes with your answer.
Key: Q
